Target: F508del in NIH 3T3 cells (Homo sapiens, UniProt P13569, DEL508-508)
Sequence (P13569 with tags, fused parts or gaps DEL508-508): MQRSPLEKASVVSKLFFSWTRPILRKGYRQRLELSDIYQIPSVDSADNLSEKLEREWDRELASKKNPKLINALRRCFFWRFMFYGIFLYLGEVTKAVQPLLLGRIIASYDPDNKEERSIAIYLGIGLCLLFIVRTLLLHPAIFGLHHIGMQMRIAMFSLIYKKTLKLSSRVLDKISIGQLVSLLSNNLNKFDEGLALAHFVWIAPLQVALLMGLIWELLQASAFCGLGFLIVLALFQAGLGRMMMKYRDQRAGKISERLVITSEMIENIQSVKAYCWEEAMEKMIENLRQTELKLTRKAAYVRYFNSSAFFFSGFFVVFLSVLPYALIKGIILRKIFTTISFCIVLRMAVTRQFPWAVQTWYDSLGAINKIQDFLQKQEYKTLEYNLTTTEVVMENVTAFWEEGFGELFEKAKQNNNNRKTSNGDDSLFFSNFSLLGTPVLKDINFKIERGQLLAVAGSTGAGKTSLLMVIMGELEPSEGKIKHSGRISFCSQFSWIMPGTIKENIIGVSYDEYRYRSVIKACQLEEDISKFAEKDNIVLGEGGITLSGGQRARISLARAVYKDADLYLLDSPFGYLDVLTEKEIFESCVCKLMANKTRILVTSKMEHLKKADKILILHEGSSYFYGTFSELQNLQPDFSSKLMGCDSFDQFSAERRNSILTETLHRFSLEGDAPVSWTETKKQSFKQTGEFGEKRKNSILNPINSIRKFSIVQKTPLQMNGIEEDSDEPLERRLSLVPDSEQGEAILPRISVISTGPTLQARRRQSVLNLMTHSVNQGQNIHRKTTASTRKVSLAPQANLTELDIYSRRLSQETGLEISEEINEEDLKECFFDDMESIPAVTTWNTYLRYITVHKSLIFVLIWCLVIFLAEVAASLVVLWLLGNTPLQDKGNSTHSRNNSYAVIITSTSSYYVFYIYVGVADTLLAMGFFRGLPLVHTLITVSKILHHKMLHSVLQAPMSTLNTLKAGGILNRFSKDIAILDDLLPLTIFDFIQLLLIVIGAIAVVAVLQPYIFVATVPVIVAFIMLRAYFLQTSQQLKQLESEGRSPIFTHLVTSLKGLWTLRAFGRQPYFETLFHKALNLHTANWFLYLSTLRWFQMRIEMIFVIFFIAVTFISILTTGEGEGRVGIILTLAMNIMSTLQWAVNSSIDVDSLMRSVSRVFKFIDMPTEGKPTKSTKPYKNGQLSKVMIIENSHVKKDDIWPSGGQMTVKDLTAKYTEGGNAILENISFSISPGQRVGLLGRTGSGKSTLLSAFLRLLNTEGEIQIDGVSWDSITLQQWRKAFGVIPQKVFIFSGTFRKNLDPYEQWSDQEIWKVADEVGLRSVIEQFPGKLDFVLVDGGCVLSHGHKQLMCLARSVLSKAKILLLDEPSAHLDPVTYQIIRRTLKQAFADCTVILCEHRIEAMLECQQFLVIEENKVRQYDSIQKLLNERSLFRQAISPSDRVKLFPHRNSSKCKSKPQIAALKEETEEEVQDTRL
Test: 3T3 assay: membrane potential optical assay for F508del correction
Details: F508del NIH 3T3 cells, incubated with compound 18-24 hours at 37° C., forskolin activation
assay-readout: EC50

// below: answered molecules
molecule: C=C(C)c1ccc2c(NS(=O)(=O)c3ccccc3)nn(-c3ccccc3C)c2c1 [Compound 72]
readout-value: 1 to 3 µM

molecule: Cc1ccccc1Oc1nc(NS(=O)(=O)c2cnn(C)c2)nc2c1CC(C)(C)CC2 [Compound 3]
readout-value: 1 to 3 µM

molecule: O=S(=O)(Nc1nc2c(c(Oc3ccccc3)n1)CCCC2)c1ccccc1 [Compound 4]
readout-value: 3 to 30 µM

molecule: O=S(=O)(NC1=Nc2ccccc2C(c2ccccc2)S1)c1ccccc1 (stereo not shown) [Compound 9]
readout-value: 3 to 30 µM

Please give EC50, item by item, for the list that follows.
1. COc1ccccc1S(=O)(=O)Nc1nn(-c2c(C)cc(C)cc2C)c2nc(C(C)(C)C)ccc12 [Compound 59]
2. Cc1cc(C)c(-n2nc(NS(=O)(=O)c3ccc(N)cc3)c3ccc(C(C)(C)C)nc32)c(C)c1 [Compound 36]
3. Cc1ccccc1-n1nc(NS(=O)(=O)c2ccccc2)c2ccc(C(C)C)cc21 [Compound 73]
4. Cc1ccccc1-n1nc(NS(=O)(=O)c2ccccc2)c2ccc(Br)cc21 [Compound 70]
5. Cc1ccccc1Oc1nc2ccccc2nc1NS(=O)(=O)c1ccccc1 [Compound 15]
6. Cc1cccc(C)c1-c1nc(NS(=O)(=O)c2ccccc2)nc2c1CCCC2(C)c1ccccc1 (stereo not shown) [Compound 76]

**A:**
1. 1 to 3 µM
2. 1 to 3 µM
3. 1 to 3 µM
4. 1 to 3 µM
5. 3 to 30 µM
6. < 1 µM
